Collected half-life values appear next to each entry.
Assay: Half life in rat liver microsomes
Conditions: liver microsomes
Write the value in h as a bare number.

Field: example entries. Status: answers known.
| structure | half-life, h |
| --- | --- |
| Cc1c(C(=O)Nc2ccnc(F)c2)nn(C)c1-c1ccc(F)cc1 | 1.9 |
| Cc1nc(C(=O)Nc2cccc(F)n2)c(C)n1-c1ccc(F)cc1 | 1.13 |

### Prompt Tell me the measured half-life of `Cc1cccc(NC(=O)c2nn(C)c(C3CCCCC3)c2C)n1` , please.
### Response 0.133

###

Assay: Half life in rat liver microsomes
Details: microsomes
Label TRUE when half-life is strictly below 2 h; otherwise label FALSE.

| structure | label |
| --- | --- |
| Cc1c(C(=O)Nc2cc(Cl)ccn2)nn(C)c1-c1ccc(F)cc1 | FALSE |

Shifting focus to the molecule that follows.
### Prompt Identify whether the molecule `Cc1cc(NC(=O)c2nn(C)c(-c3ccc(F)cc3)c2C)ccn1` records half-life below 2 h.
### Response TRUE
